Hello, the source for this data is PubChem BioAssay (NCI), in case you need it.

system: DU-145 prostate; experiment: NCI tumour cell line growth inhibition, 48 h
Consider the following molecules and their measured TGI readings.

Past entries and their recorded results:
INSERT INTO assay_data (molecule, measured) VALUES
  ('CC1(C)CC(=O)C2=C(C1)NC1=C(C(=O)CC(C)(C)C1)C2c1ccc([N+](=O)[O-])cc1', '> 100 µM'),
  ('O=[N+]([O-])c1ccc(/C=N/Nc2nnc3c4ccccc4c4ncccc4c3n2)o1', '> 10 µM'),
  ('COc1ccc(C[C@@H]2NC[C@@H](O)[C@@H]2OC(C)=O)cc1', '0.0947 µM'),
  ('O=[N+]([O-])/C=C/c1cc2ccccc2[nH]1', '28.8 µM'),
  ('O=C1N2CCc3c([nH]c4ccccc34)C23CC2CCCCC12S3 (stereo not drawn)', '> 100 µM'),
  ('CN1CCN(c2ccc(Nc3nc(N)c(C(=O)c4ccc5c(c4)OCCO5)s3)cc2)CC1', '16.5 µM');

Lab note: next molecule to report on.
Name the reported TGI value associated with the molecule "COc1ccc(-c2nc(C(=O)c3ccccc3)n(CC(=O)c3ccccc3)c2-c2ccc(OC)cc2)cc1"
> 100 µM
